Value source: ChEMBL document CHEMBL1155389

# Test target: Mast/stem cell growth factor receptor Kit (Homo sapiens, UniProt P10721)
# Sequence (P10721 whole entry): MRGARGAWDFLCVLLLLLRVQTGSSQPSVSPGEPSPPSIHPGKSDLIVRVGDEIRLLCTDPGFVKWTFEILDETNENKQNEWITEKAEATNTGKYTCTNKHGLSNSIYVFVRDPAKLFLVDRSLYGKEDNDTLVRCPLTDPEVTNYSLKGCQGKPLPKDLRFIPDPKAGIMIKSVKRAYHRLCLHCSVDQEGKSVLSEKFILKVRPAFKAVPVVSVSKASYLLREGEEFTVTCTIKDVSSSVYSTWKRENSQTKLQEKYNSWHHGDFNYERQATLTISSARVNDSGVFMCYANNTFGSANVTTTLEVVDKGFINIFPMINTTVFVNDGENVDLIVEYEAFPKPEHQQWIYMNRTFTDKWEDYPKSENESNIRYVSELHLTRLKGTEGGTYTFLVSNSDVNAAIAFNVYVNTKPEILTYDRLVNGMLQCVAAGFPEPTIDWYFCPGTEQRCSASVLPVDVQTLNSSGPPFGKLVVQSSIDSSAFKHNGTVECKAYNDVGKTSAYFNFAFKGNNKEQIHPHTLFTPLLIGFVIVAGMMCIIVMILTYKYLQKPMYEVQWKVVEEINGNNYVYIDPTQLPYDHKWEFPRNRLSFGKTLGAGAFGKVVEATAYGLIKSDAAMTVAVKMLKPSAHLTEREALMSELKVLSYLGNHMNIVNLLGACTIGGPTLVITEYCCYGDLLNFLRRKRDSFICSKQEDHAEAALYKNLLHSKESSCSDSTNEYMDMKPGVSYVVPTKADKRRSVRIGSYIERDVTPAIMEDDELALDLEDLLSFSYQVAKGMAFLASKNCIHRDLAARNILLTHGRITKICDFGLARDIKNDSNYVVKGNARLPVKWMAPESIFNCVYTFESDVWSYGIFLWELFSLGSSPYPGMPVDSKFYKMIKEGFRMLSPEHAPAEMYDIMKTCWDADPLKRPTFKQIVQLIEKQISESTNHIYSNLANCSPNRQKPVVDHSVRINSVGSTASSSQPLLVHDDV
Attribute measured: IC50 (µM)
I only need the number, in µM, no unit after it.

Prompt line: Item under review: Cc1ccc(-c2ccnc(Nc3cc(NC(=O)c4ccc(CN5CCN(C)CC5)cc4)ccc3C)n2)cn1 . Reported IC50?
Response line: 0.043

* * *

# Assay protocol: Inhibition of GSK3
Attribute measured: pIC50
For clarity, pIC50 is expressed as the negative log10 of concentration in mol/L.

Prompt line: Item under review: N#Cc1c(N)cc2[nH]nc(N)c2c1-c1ccccc1 . Reported pIC50?
Response line: 4.82

* * *

# Test target: RAC-alpha serine/threonine-protein kinase (Homo sapiens)
# Sequence (P31749 whole entry): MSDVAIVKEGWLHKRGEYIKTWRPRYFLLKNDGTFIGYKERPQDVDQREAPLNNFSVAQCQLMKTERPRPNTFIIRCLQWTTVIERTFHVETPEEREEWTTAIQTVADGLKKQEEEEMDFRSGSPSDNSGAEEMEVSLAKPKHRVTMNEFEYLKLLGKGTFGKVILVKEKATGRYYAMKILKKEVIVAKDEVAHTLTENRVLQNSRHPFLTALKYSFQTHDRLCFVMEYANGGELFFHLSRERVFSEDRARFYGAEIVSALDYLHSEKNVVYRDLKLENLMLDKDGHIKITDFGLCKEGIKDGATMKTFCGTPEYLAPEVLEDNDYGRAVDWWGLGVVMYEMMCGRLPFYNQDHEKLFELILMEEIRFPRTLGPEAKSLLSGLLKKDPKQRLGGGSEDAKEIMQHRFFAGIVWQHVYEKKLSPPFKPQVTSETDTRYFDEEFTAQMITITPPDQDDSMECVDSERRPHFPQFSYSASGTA
Attribute measured: pIC50
For clarity, pIC50 is expressed as the negative log10 of concentration in mol/L.

Prompt line: Lab note: need pIC50 with RAC-alpha serine/threonine-protein kinase (Homo sapiens) for entry Cn1nnnc1-c1cnc(-c2ccc(CN3CCC(n4c(=O)[nH]c5ccccc54)CC3)cc2)c(-c2ccccc2)c1 , please look it up.
Response line: 6.56
